Collected EC50 values appear next to each entry.
Target: SIRT1 (Homo sapiens, UniProt Q96EB6)
Sequence (Q96EB6 1-747): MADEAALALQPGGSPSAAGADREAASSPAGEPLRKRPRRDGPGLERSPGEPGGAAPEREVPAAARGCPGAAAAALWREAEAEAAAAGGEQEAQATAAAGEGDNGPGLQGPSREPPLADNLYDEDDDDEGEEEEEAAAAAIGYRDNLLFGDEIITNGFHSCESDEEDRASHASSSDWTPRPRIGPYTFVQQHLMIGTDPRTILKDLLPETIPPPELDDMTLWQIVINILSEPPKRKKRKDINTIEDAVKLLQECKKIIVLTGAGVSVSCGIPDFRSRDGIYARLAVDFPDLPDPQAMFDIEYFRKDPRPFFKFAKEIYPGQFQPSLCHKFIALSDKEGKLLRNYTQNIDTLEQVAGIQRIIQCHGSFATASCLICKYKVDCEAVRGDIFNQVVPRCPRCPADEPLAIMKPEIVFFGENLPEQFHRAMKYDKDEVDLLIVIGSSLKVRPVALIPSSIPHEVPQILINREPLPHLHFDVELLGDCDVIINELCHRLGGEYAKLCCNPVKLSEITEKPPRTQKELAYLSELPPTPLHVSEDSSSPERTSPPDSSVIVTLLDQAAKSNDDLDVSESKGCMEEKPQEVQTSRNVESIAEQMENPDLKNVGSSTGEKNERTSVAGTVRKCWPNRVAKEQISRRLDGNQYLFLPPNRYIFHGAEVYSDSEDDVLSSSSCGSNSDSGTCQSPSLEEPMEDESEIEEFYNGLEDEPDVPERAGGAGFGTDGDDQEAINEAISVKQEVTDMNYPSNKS
Assay: SIRT1 mass spectrometry (MS) based deacetylation assay
Type: biochemical
Details: SIRT1 activation, mass spectrometry assay; read-out: ED50 MS ASSAY

Below: 2 compounds and their reported EC50.
COc1ccc(C(=O)Nc2cccc(-c3nc4cccnc4s3)c2)cc1; < 5 µM
COc1ccc(C(=O)Nc2cc(CN(C)C)cc(-c3nc4ncccc4o3)c2)c(OC)c1; 5 to 50 µM

Supply recorded EC50 for "COc1ccc(C(=O)Nc2ccccc2-c2nc3ccccc3[nH]2)cc1OC" here. < 5 µM

Supply recorded EC50 for "COc1cccc(OC)c1C(=O)Nc1cccc(-c2nc3ccccc3o2)c1" here. 5 to 50 µM

---

target: SIRT1 (Homo sapiens, UniProt Q96EB6); test: SIRT1 mass spectrometry (MS) based deacetylation assay; format: biochemical; settings: SIRT1 activation, mass spectrometry assay; read-out: ED50 MS ASSAY
Assay endpoint: EC50

Below: 5 compounds and their reported EC50.
CN(C)c1ccc(C(=O)Nc2cccc(-c3nc4ncccc4o3)n2)cc1; 5 to 50 µM
O=C(Nc1ccc(-c2nc3ncccc3o2)cc1)c1ccc(N2CCOCC2)cc1; > 150 µM
COc1cc(C)ccc1C(=O)Nc1ccc(-c2cc3cccnc3o2)cc1; 5 to 50 µM
CN(C)c1cccc(C(=O)Nc2cncc(-c3nc4ncccc4o3)c2)c1; 5 to 50 µM
COc1ccc(C(=O)Nc2cccc(-c3nc4ccccc4[nH]3)c2)c(OC)c1; < 5 µM

Supply recorded EC50 for "COc1ccc(S(=O)(=O)Nc2cncc(-c3nc4ncccc4o3)c2)cc1OC" here. > 150 µM

Supply recorded EC50 for "COc1ccc(C(=O)Nc2ccccc2-c2cn3cccnc3n2)c(OC)c1" here. 5 to 50 µM

Supply recorded EC50 for "Cc1ccc(C)n1-c1cccc(C(=O)Nc2ccc(-c3nc4ncccc4o3)cc2)c1" here. > 150 µM
